Origin of measurements: PubChem BioAssay

- method_description: CREB reporter modulators under forskolin, primary screen, cell-based, PC12, CRE-LacZ reporter, forskolin-stimulated (AID 1146);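 note: PC12 cells with 6xCRE LacZ reporter stimulated by forskolin 10 µM; beta-galactosidase reporter signal reflecting CREB driven transcription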
- condition_label: luminescence, 4.5 h, higher = more signal, called active from +8 up or from −8 down
Active and inactive are the calls of the source.
assay_readout: z-score

For the compound CCCCN1CC=CC23O[C@@H]4/C=C\CCC(C)OC(=O)C4[C@H]2C(=O)N(CCCCCCO)[C@@H]3C1=O (some centres undefined) , give its reported z-score.
-0.0292 (inactive)

Tell me measured z-score for C[n+]1ccc(CCCO)cc1 please.
0.58 (inactive)

Consider the compound CCOC(=O)C1=CC[C@@H](c2cc(Cl)ccc2Cl)N(S(=O)(=O)c2ccc(C)cc2)[C@H]1c1ccc(OC)cc1 and give its recorded z-score.
-0.555 (inactive)

Read off the recorded z-score for Cc1ccc(S[C@]2(C(=O)NCCN3CCOCC3)CC(=O)N(Cc3ccccc3C(F)(F)F)[C@@H]2c2ccc(CO)cc2I)cc1
4.04 (inactive)
